peptide microarray binding signal values, listed per item
molecular target: anti-H3K4me3 antibody ab8580; test: peptide microarray binding signal (635 nm), min-max normalized on array (fraction of array maximum); higher = stronger binding; conditions: peptide region: Unmod H2B variant; binder concentration: 1:2,000 dilution
measure_name: peptide microarray binding signal

- PEVSSKGATISKK [Unmod H2B variant P E V S S K G A T I S K K]: 0.00051
- VHPDTGISSKAMG [Unmod H2B variant V H P D T G I S S K A M G]: 0.00563
- PEPSKSAPAPKKG [Unmod H2B variant P E P S K S A P A P K K G]: 0.000963
- PKKGSKKAVTKAQ [Unmod H2B variant P K K G S K K A V T K A Q]: 0.000378
- ISKKGFKKAVVKT [Unmod H2B variant I S K K G F K K A V V K T]: 0.00051
- KHAVSEGTKAVTK [Unmod H2B variant K H A V S E G T K A V T K]: 0.000906
- KVLKQVHPDTGIS [Unmod H2B variant K V L K Q V H P D T G I S]: 0.000755
- APKKGSKKAITKA [Unmod H2B variant A P K K G S K K A I T K A]: 0.000264
- KTQKKEGKKRKRT [Unmod H2B variant K T Q K K E G K K R K R T]: 0.00068
- DIFERIAGEASRL [Unmod H2B variant D I F E R I A G E A S R L]: 0.00406
- PEPTKSAPAPKKG [Unmod H2B variant P E P T K S A P A P K K G]: 0.001
- YSKRSTISSREIQ [Unmod H2B variant Y S K R S T I S S R E I Q]: 0.00225
- KRTRKESYSIYIY [Unmod H2B variant K R T R K E S Y S I Y I Y]: 0.000529
- PDPAKSAPAPKKG [Unmod H2B variant P D P A K S A P A P K K G]: 0.000868
- VPKKGSKKAINKA [Unmod H2B variant V P K K G S K K A I N K A]: 0.000529
- YNKRSTITSREIQ [Unmod H2B variant Y N K R S T I T S R E I Q]: 0.00293
- EIQTAVRLLLPGE [Unmod H2B variant E I Q T A V R L L L P G E]: 0.00893
- APKKGSKKAVTKA [Unmod H2B variant A P K K G S K K A V T K A]: 0.000529
